# ASSAY PROCEDURE: protein stability index of a GFP-peptide fusion (yeast GPS) (PSI 1-4); higher = more stable; sorted into four equal gates, so the index is relative within each strain
# PROTOCOL CONDITIONS: pdr5∆
Listed here are sequences together with their documented protein stability index.
MEASURE: protein stability index

| INPUT SEQUENCE | MEASURE | REPORTED RESULT |
| --- | --- | --- |
| PQGRQSTTFADCPVVPA [RPC40] | protein stability index | 2.92 |
| FGRTLASVTKEILGTAQ [RPL12A] | protein stability index | 1.53 |
| SSPTLATGFGAHMANPL [PRE4] | protein stability index | 3.07 |
| SGTYHLNCGNGMGIGFI [POP1] | protein stability index | 2.93 |
| ANEQLKLFNRIVERETN [CSN12] | protein stability index | 2.73 |
| DKLSGCYAPRPSAGPHK [RPS4A] | protein stability index | 1.96 |
| EALIEFIYDTEKNGGLG [FAS2] | protein stability index | 2.63 |

---

# ASSAY PROCEDURE: protein stability index of a GFP-peptide fusion (yeast GPS) (PSI 1-4); higher = more stable; sorted into four equal gates, so the index is relative within each strain
# PROTOCOL CONDITIONS: ubr1∆
Quick rule: protein stability index of at least 3 means satisfied, below that means not satisfied.

| INPUT SEQUENCE | CLASS |
| --- | --- |
| KMLSCAGADRLQQGMRG [RPL10] | satisfied |
| SDPNNQSLNEMVKLIVM [YJL039C/NUP192] | not satisfied |
| NSADVDMDAQGRSDSNT [YGL100W/SEH1] | satisfied |
| DVKSSLSKVFSDVLFEF [YJL039C/NUP192] | not satisfied |
| ELGTAVGKLFRVGVVSI [RPL30] | not satisfied |
| LLHNHLKSIESLKLENS [SMC2] | not satisfied |

---

Listed here are sequences together with their documented protein stability index.
# ASSAY PROCEDURE: protein stability index of a GFP-peptide fusion (yeast GPS) (PSI 1-4); higher = more stable; sorted into four equal gates, so the index is relative within each strain
# PROTOCOL CONDITIONS: pdr5∆

| INPUT SEQUENCE | protein stability index |
| --- | --- |
| PTIRSNAVLGLGDMAVC [YCS4] | 1.64 |
| LLNKNTGNNLYDRNSNN [SWI1] | 2.85 |
| WEHTAAEDQILANFVAK [SRB8] | 2.5 |
| VDLWSVGCIFAELIGLQ [SSN3] | 3.16 |
| ISPSAPSKDSFTKYKPA [YAR002W/NUP60] | 2.9 |
| VLNEDDLAFGGEANKHH [RPN5] | 3.13 |
| EKLTLVTLSEIYNELSY [CSN9] | 1.66 |
| KLHHDLKLCLGDHSSVP [YMR129W/POM152] | 3.09 |
| ANGGSTIISPHKDIPEE [DSN1] | 3.44 |
| FGVTKARWPAKSVKFVQ [RPL17A] | 2.51 |
| SLFSHRKHTRGDVSSGL [BRN1] | 3.01 |
| LKETVIPSLANNGNNST [POP6] | 3.01 |

---

# ASSAY PROCEDURE: protein stability index of a GFP-peptide fusion (yeast GPS) (PSI 1-4); higher = more stable; sorted into four equal gates, so the index is relative within each strain
# PROTOCOL CONDITIONS: san1∆
MEASURE: protein stability index

| INPUT SEQUENCE | MEASURE | REPORTED RESULT |
| --- | --- | --- |
| EIKNDFIMVKGCIPGNR [RPL3] | protein stability index | 1.48 |
| TNSVRLFEVNPSQTLFS [SRP21] | protein stability index | 2.2 |
| NNSEQDQEIVIQQLHSV [ISW2] | protein stability index | 2.2 |
| KLQENRTLLTEEIEPKL [SMC2] | protein stability index | 2.76 |
| SPQKFETNLQTFLPPLL [ECM29] | protein stability index | 3.2 |
| QNHNSKSTDNSAIRQVF [IRR1] | protein stability index | 2.85 |
| KRSMDAEQLGHASKRHK [RPP1] | protein stability index | 2.68 |
| SNTIDELSTDIILKTRQ [SRB7] | protein stability index | 3.18 |
| SESVGAFLSFLAYRNYW [YJL039C/NUP192] | protein stability index | 1.72 |
| ETTTEEDSENPSDWQRN [ITC1] | protein stability index | 3.06 |
| FKELCYENKDNLTAGII [PRE3] | protein stability index | 2.93 |
| GGSATARHKKKVENLDY [YML031W/NDC1] | protein stability index | 3.06 |
| PKYRDNLATWYHSAGGR [SSN3] | protein stability index | 3.1 |
| PNIRELGVKNLGLCCLL [YCG1] | protein stability index | 1.87 |
| TPQQLQMIQQRHQQLLR [SNF5] | protein stability index | 2.04 |
| NNKILEKCKEINVETVY [BRR2] | protein stability index | 1.78 |
| ADLRPLQIKSIREIDVT [RPS7B] | protein stability index | 2.53 |
| RFKNSVKWYHFDHNDKK [PRE7] | protein stability index | 2.69 |
| IKLVKQNDELKFQGVLE [RPC34] | protein stability index | 3.37 |
| AKEVKVLYHTSGAITFV [PRP8] | protein stability index | 2.58 |
